experiment: Slurry stability study at room temperature (25° C.), 4 weeks, analysis by FTIR; format: physicochemical; settings: Methyl THF, 25° C., 4 weeks, FTIR
Assay Metric: Final form after slurry

Item under review: COc1ccc(C(=O)NC2(C(=O)O)Cc3ccccc3C2)cc1OCCc1cccc(C)c1 [Forms 1, 2, 3] . Reported Final form after slurry?
Form 1

Given the entry COc1ccc(C(=O)NC2(C(=O)O)Cc3ccccc3C2)cc1OCCc1cccc(C)c1 [Form 1] , report its measured Final form after slurry.
Form 1

# get_value(readout='Final form after slurry', item= COc1ccc(C(=O)NC2(C(=O)O)Cc3ccccc3C2)cc1OCCc1cccc(C)c1 [Form 3] )
Form 1

###

test: Slurry stability study at room temperature (25° C.), 4 weeks, analysis by FTIR; format: physicochemical; conditions: Methanol, 25° C., 4 weeks, FTIR
Assay Metric: Final form after slurry

What value of Final form after slurry has been reported for the following molecule? COc1ccc(C(=O)NC2(C(=O)O)Cc3ccccc3C2)cc1OCCc1cccc(C)c1 [Forms 1, 2, 3]
Form 1

Using the record for COc1ccc(C(=O)NC2(C(=O)O)Cc3ccccc3C2)cc1OCCc1cccc(C)c1 [mixtures of Form 4 and Form 1] , report its Final form after slurry.
Form 1

Record request: Final form after slurry value, item COc1ccc(C(=O)NC2(C(=O)O)Cc3ccccc3C2)cc1OCCc1cccc(C)c1 [Form 1]
Form 1

Data request, read-out Final form after slurry, for COc1ccc(C(=O)NC2(C(=O)O)Cc3ccccc3C2)cc1OCCc1cccc(C)c1 [Form 3]
Form 1

###

Experiment: Solubility of polymorphs at pH 7.4 in phosphate buffer at 25° C.
Format: physicochemical
Settings: aqueous buffer, thermodynamic from solid, pH 7.4 phosphate buffer, read-out: Solubility, concentration (equilibrium)
Protocol: The solubility of the different polymorphs was determined at pH 7.4 in phosphate buffer at 25° C. Samples were analyzed as a function of time for each form to determine the equilibrium values. The residual solids from each sample were analyzed to verify that the form was unchanged during the experiment. The concentration (mg/mL) versus time data is listed below for each form: […]
Assay Metric: solubility at 24 h (µg/mL)
Give your result in µg/mL as a bare value.

What value of solubility at 24 h has been recorded for this entry: COc1ccc(C(=O)NC2(C(=O)O)Cc3ccccc3C2)cc1OCCc1cccc(C)c1 [Form 2]
57
